experiment: yeast display, Sf9 membrane polyspecificity reagent, FACS + sequencing; frameworks hold sequencing errors
ENDPOINT LABEL: polyreactivity (PSR sort gate)

INPUT SEQUENCE: QVQLVESGGGLVQAGGSLRLSSAGSGRIFGYYAMGGYRQAPGTETELVAAISSNGGSTYYADSVKGRFTISRDNANNTVYLQMNSLQPEDTAVYYCKVYFYSRHYFYRGDYWGQGTQVTVSS
ENDPOINT LABEL: polyreactivity (PSR sort gate)
MEASURED VALUE: high polyreactivity
//
INPUT SEQUENCE: QVQLVESGGGLVHAGGILRLSCAASGRIFDYNVMGWYRQAPGKERELVADINGSGGGTNYADSVKGRFTISRDNAKNTVYLQMNSLKPEDTAVYYCAAEWYSYGARSSYGGSRNDYWGHGTQVTVSS
ENDPOINT LABEL: polyreactivity (PSR sort gate)
MEASURED VALUE: low polyreactivity
//
INPUT SEQUENCE: QLQLVESGGGLVQAGGSLRLSCAASGFTFVSNAMGWYRQAPGKERELVAVISSGGSTTYADSVKGRFSISPDNAKNTVYLQMNSLKPEDTAGYYCATTNSQDSYEGGDYWGQGTQVTVSS
ENDPOINT LABEL: polyreactivity (PSR sort gate)
MEASURED VALUE: low polyreactivity
//
INPUT SEQUENCE: QVQLVESGGRLVQAGGSLRLSCAASGIIFRFYPMGWSRQAPGKERELVAAIRTSGGSTYYADSVKGRFTISRDNAKNTVYLQMNSLKPEDTAVYYCAAGPRAYSYRIYALYYWGQGTQVTVSS
ENDPOINT LABEL: polyreactivity (PSR sort gate)
MEASURED VALUE: high polyreactivity
//
INPUT SEQUENCE: QVQLVESGGGLVQAGGSLRISFAASGRTFFGYAMGWYRQAPGKERELVATIDGSDGSTFYADSVKGRFTISRDNAKNTVYLQMNSLKPEDTAVYYCAAENFWQSKEYDYWGQGTQVTVSS
ENDPOINT LABEL: polyreactivity (PSR sort gate)
MEASURED VALUE: low polyreactivity
//
INPUT SEQUENCE: QVQLVESGGGLFQAGGSLRLSCAASGRIFVFYAMGWYRQAPGKEMELVAAISKSVGPTYYADSVKGRFTISRDYAKNTVYLQMNSLKPEDTAVYYCNKRSASDLWPQYGYWGQGTQVTVSS
ENDPOINT LABEL: polyreactivity (PSR sort gate)
MEASURED VALUE: low polyreactivity
//
INPUT SEQUENCE: QVHLQESGGGLVQAGGSLRMSCAASGTIFTEANMGWYRQAPGKERELVATIGLGSTTNYADSVKGRFTISRDNAKNTVYLQMNSLKPEETAVYYCAVVTVDPVGFVYWGQGSQVTVSS
ENDPOINT LABEL: polyreactivity (PSR sort gate)
MEASURED VALUE: low polyreactivity
//
INPUT SEQUENCE: QVQLVESGGGLVQAGGSLRLSCAASGSTFWGYAMGWSRPAPGKERELVATITTGGGGTYYADSVKGRFTISRDNAKNTVYLQMNSLKPEDTAVYYCAARLRDGRTPRTEYDYWGQGTQVTVSS
ENDPOINT LABEL: polyreactivity (PSR sort gate)
MEASURED VALUE: low polyreactivity
//
INPUT SEQUENCE: QVQLVESGGGLVQAGGSLRLSCAASGGIFPYYAMGWYSQAPGKEMELVAGISQNDGRTYYADSVKGRFTISRDNAKNTVYLQMNSLKPEDTAVYYCATVYWYPRYGYWGQGTQVTVSS
ENDPOINT LABEL: polyreactivity (PSR sort gate)
MEASURED VALUE: low polyreactivity
//
INPUT SEQUENCE: QVQLVESGGGLVQAGGSLRLSCAASGITFKTYAMGWYRQAPGKERELVATINRGSRTNYADSVKGRFTISRDNAKNTVYLQMNSLKPEDTAVYYCAAEYVTYISSEMDYWGQGTQVTVSS
ENDPOINT LABEL: polyreactivity (PSR sort gate)
MEASURED VALUE: low polyreactivity
//
INPUT SEQUENCE: QVHLVESGGGLVQAGGSIRLSCAASGLIFYPYAMGWYRKAHGKEREFVAAITWSGGSTRYADSVKGRFTISLDNAKNTVYLQMNSLKPEDTAVYYCAARYIWWYDYTYTGLDYWGQGTQVSVSS
ENDPOINT LABEL: polyreactivity (PSR sort gate)
MEASURED VALUE: high polyreactivity
//
INPUT SEQUENCE: QVQHEESGGGLVQAGGSLRLSCAASGFTFGTNAMGWSRQAPGKERELVAAISTRGGSTYYADSVKGRFTISRDNAKNTVYLQMNSLKPEDTAVYYCAAYWGRTRYYGYDYYYWGQGTQVTVSS
ENDPOINT LABEL: polyreactivity (PSR sort gate)
MEASURED VALUE: high polyreactivity
//
INPUT SEQUENCE: QVQLVESGGGLDQAGGSLRLSCAASGRISYRYAMGSYRQAPGKEMELVASISSGVSTYYADSVKGRFTISRDNAKNTVYLQMHSLKPEDSAVYFCAAAYWFHNDYWGLGTQVTVSS
ENDPOINT LABEL: polyreactivity (PSR sort gate)
MEASURED VALUE: high polyreactivity
//
INPUT SEQUENCE: QVQLVESGGGLVQAGGSLRLSCAASGYTFARNAMGWYIQAPGKERELVAAISSSGGRTYYADSVKGRFTISRDNAKNTVYLQMNSLKPEDTAVYYCNTGYYRTGSYDYWGQGTQVTVSS
ENDPOINT LABEL: polyreactivity (PSR sort gate)
MEASURED VALUE: high polyreactivity
//
INPUT SEQUENCE: QGQLVESGGGLVQAGGILRLRCAASGRMFQQYAMGWYRQAPGKERELVAVITYRAGRTHYADSVKGRFTISRDIAKNTVYLQMYRVKPDDTAVYYCAAGRYYAVWHSISGFDSWGQGTQETVSS
ENDPOINT LABEL: polyreactivity (PSR sort gate)
MEASURED VALUE: low polyreactivity
//
INPUT SEQUENCE: QVQRVESGGGLVQAGGSLRLSCAASGFTIGSYAMGWYRQAPGKERELVAAITRRGGSTYYADSEKGRYTISRDNAKNTVSLQMNSLKPEDTAVYYCGKRSRDYVSSFRTSHANDYWGQGTQVTVSS
ENDPOINT LABEL: polyreactivity (PSR sort gate)
MEASURED VALUE: high polyreactivity
//
INPUT SEQUENCE: QVQLVESGGGLVQAGGSLRLSCAASGNTFDGYDMGWYRQAPGKERELVAAITNTGASTYYADSVKGRFTISRDNAKNTVYLQMNSLKPEDTAVYYCIAQDSYPEDRHGMSYWGQGTQVTVSS
ENDPOINT LABEL: polyreactivity (PSR sort gate)
MEASURED VALUE: low polyreactivity
//
INPUT SEQUENCE: QVQLVESGGGLVQAGGSLRLSCAASGSIFGRYAMGWYRQAPGKERELVASITRGAGSTYYADSVKGRFTISRDNAKNTVYLQMNSLKPEDTAVYYCRLAPRYRKGGYWGQGTQVTVSS
ENDPOINT LABEL: polyreactivity (PSR sort gate)
MEASURED VALUE: high polyreactivity
//
INPUT SEQUENCE: QVQLVESGGGLVQAGGSLRLSCAASGRTLPPNDMGWYRQAPGKERELVAAITRSGGRTYYADSVKGRFTISRDNAKNTVYLQMNSLKPEDTAVYYCATYNPPYSDYSRYNYWGQGTQVTVSS
ENDPOINT LABEL: polyreactivity (PSR sort gate)
MEASURED VALUE: high polyreactivity
//
INPUT SEQUENCE: QVQLVESGGGLVQAGGSLRLSCAASGSIFPYNAMGWYRQAPGKERELVAAIRFGGGSTYYSDSVKGRFTISRDNAKNTVYLQMNSLKPEDTAVYYCAAQVLQSAYLPFRFGYYYWGLGTQVTVSS
ENDPOINT LABEL: polyreactivity (PSR sort gate)
MEASURED VALUE: low polyreactivity
//
INPUT SEQUENCE: QGQLVESGGGLVQAGGSLRLSCAASGRTFNYYAMGWYREAPGKEWELGAAITNRGGSTYYADSVKGRFTISRDNAKNTVYLQMNSLKPEDTAVYYSAARGKYPSASGYTYSYGYWGQGTQVTVSS
ENDPOINT LABEL: polyreactivity (PSR sort gate)
MEASURED VALUE: high polyreactivity

Sourced from the nanobody polyreactivity screen of Harvey et al. (2022)
